Molecular target: UniProtKB P03956
Sequence (P03956 100-469): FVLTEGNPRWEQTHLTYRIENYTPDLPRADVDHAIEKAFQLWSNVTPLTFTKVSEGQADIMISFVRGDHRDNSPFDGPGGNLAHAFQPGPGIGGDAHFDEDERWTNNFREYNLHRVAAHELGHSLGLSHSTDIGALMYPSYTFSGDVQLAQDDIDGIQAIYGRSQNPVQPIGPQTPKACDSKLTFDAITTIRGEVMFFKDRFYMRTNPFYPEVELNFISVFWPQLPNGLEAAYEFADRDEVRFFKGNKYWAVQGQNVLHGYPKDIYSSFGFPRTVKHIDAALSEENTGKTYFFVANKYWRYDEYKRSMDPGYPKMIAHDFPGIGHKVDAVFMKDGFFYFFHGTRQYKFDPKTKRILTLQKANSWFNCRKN
Test: MMP-1 inhibition
Type: biochemical
Settings: read-out: IC50 MMP-1
Measured property: IC50 (nM)

>>> measured_value("CNC(=O)[C@H](Cc1cccc2ccccc12)NC(=O)[C@@H](CC(=O)NO)CC(C)C")
0.35
>>> measured_value("CNC(=O)[C@H](Cc1cccc2c1CCCC2)NC(=O)[C@H](CC(C)C)[C@H](C)C(=O)NO")
0.3
